Test Description: Solubility of doxorubicin HCl in nonaqueous solvents
Format: physicochemical
Condition Notes: propylene glycol, 1,2-dihydroxybutane, 1,3-dihydroxypropane, organic solvent or mixture, room temperature; in propylene glycol, 1,2-dihydroxybutane and 1,3-dihydroxypropane; read-out: solubility
Where a name gives a salt, the structure may show the parent alone.
Recorded Metric: solubility

Exam item: State, in one line, measured solubility of COc1cccc2c1C(=O)c1c(O)c3c(c(O)c1C2=O)C[C@@](O)(C(=O)CO)C[C@@H]3O[C@H]1C[C@H](N)[C@H](O)[C@H](C)O1 [doxorubicin HCl, doxorubicin hydrochloride]
Marked response: < 5000 µg/mL

###

Test Description: Solubility of doxorubicin HCl in nonaqueous solvents
Assay type: physicochemical
Condition Notes: glycols with 5-10% water, organic solvent or mixture, propylene glycol, 1,2-dihydroxybutane, 1,3-dihydroxypropane with addition of 5-10% (v/v) water; read-out: solubility
Structures can show the parent of a compound that is named as a salt.
Recorded Metric: solubility

Exam item: Please give the documented solubility of COc1cccc2c1C(=O)c1c(O)c3c(c(O)c1C2=O)C[C@@](O)(C(=O)CO)C[C@@H]3O[C@H]1C[C@H](N)[C@H](O)[C@H](C)O1 [doxorubicin HCl, doxorubicin hydrochloride]
Marked response: ~20 mg/mL

###

Test Description: Solubility of doxorubicin HCl in nonaqueous solvents
Assay type: physicochemical
Condition Notes: nonaqueous solvents, organic solvent or mixture, with heating; polyethylene glycols, ethanol, benzyl alcohol, dimethylisosorbide, ethyl lactate, Solketol, Cremophors, Pluronics; read-out: solubility
Counter-ions that a name gives are not always drawn.
Recorded Metric: solubility

Exam item: Tell me measured solubility for COc1cccc2c1C(=O)c1c(O)c3c(c(O)c1C2=O)C[C@@](O)(C(=O)CO)C[C@@H]3O[C@H]1C[C@H](N)[C@H](O)[C@H](C)O1 [doxorubicin HCl, doxorubicin hydrochloride] please.
Marked response: < 5000 µg/mL

Data credit: patent EP0299528A1
